TARGET: Recombinant human mPGES-1 (Homo sapiens, UniProt O14684)
Construct: made in house; host or cells: CHO cells (crude microsomal fractions)
Sequence (O14684 whole entry): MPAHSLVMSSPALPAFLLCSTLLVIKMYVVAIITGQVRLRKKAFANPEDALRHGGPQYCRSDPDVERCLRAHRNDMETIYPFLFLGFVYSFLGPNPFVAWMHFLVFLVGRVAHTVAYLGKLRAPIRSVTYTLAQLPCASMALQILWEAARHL
ASSAY_SUMMARY: In-vitro screening of mPGES-1 inhibitors (inhibition of PGE2 formation from PGH2, HTRF detection)
Type: biochemical
CONDITION_SUMMARY: 10 μM test compound; mPGES-1 enzyme, crude microsomal fractions; read-out: Percentage inhibition at 10 μM
Documented inhibition at 10 µM across a set of compounds
Report the value in % with no unit label.

Study these solved cases before continuing.
1. O=C(NCc1cc(-c2nn(-c3ccc(Cl)cc3)c(=O)[nH]2)c(Cl)cc1F)c1ccccc1F [Example-132] | 89.8
2. CC(C)C(=O)NCc1ccc(Cl)c(-c2nn(-c3ccc(C(F)(F)F)c(F)c3)c(=O)[nH]2)c1 [Example-161] | 99.4
3. COc1cc(OC)cc(-c2noc(-c3ccc(-n4nc(-c5c(F)cccc5Cl)[nH]c4=O)cc3OC)n2)c1 [Example-41] | 87.1

Moving on to another compound below.
// query Recorded inhibition at 10 µM of COc1cc(-n2nc(-c3c(F)cccc3Cl)[nH]c2=O)ccc1C#Cc1cc(Cl)ccc1Cl [Example-59] , please.
// result 96.8
